Hey, just so you know, these numbers are from paper PMC10692205.

# Tested System: T1, human wild-type, full length Gasdermin D (GSDMD 1-484), chemically biotinylated (Homo sapiens (Human)., UniProt P57764, chemically biotinylated (ChromaLink Biotin), approximately 2 biotins per molecule)
# T1 construct: human Gasdermin D (GSDMD), wild type, full length, residues 1-484; also called human GSDMD wt, f.l; hGSDMD; source: E. coli Rosetta (DE3), purified (Ni-NTA, SUMO cleavage by ULP1, second Ni-NTA, SEC S200); chemically biotinylated (ChromaLink Biotin Labeling kit); not shown: His6-SUMO, N-terminal, cleaved
# T1 sequence (P57764 whole entry, the tested form may be a part): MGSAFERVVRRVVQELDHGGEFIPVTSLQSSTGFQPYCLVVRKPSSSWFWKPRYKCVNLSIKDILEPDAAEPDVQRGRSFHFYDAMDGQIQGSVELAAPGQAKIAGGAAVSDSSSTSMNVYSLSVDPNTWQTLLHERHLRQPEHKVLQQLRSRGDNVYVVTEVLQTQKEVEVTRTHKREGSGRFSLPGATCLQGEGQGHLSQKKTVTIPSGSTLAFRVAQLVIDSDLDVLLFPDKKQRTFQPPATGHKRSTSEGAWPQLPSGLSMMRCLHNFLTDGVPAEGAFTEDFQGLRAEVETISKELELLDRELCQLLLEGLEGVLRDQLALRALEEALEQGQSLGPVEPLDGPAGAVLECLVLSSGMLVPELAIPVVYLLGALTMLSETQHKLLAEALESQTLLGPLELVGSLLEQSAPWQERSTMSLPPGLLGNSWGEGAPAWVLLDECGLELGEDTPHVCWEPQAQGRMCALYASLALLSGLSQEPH
# Assay Overview: SPR; Biacore 8K; chemically biotinylated full length GSDMD captured on Series S Sensor Chip CAP; nanobodies injected as analytes, multi-cycle kinetics (VHH-1, -2, -3, -5: 0.5-32 nM; VHH-4, -6: 64-4096 nM); 25 °C; 20 mM HEPES pH 8.0, 200 mM NaCl, 5 mM DTT, 0.05% Tween20; flow 30 µl/min; association 120 s, dissociation 300 s; 1:1 binding model
# Condition Description: both partners purified
Kd listing for selected binders.
Measure Name: Kd (nM)

1. VHH_(GSDMD-2) (VHH, also called VHH-2; source: E. coli WK6, periplasmic expression (pHEN6), purified (Ni-NTA, SEC S75)) VHH: QVQLVESGGGLVQPGGSLRLSCVDSRSWINVYGANWYRQAPGKERELVAALTSGGTTNYADSVKGRFTISRDNAKNTVYLQMRDLKPEDTAVYYCNLERYTGSSVYPWGQGTQVTVSS ... 0.637
2. VHH_(GSDMD-1) (VHH, also called VHH-1; source: E. coli WK6, periplasmic expression (pHEN6), purified (Ni-NTA, SEC S75)) VHH: QVQLVESGGALVQPGGSLRLSCSASGFTFSKYLMSWYRQAPGKERELVATITTAGGNTNYADSVKGRFTISRDNAKNTVYLQMNSLKPEDTAVYYCKASGGTIRTVNETYWGQGTQVTVSS ... 0.305
3. VHH_(GSDMD-5) (VHH, also called VHH-5; source: E. coli WK6, periplasmic expression (pHEN6), purified (Ni-NTA, SEC S75)) VHH: QVQLVETGGGLVQPGGSLRLSCAASGFVFSINPMNWYRQAPGKERELVAYISMRGSTTNYADSVKGRFIISRDNAKNTLYLQMNSLKPEDTAVYYCNAPSRSVWGQGTQVTVSS ... 0.494
4. VHH_(GSDMD-6) (VHH, also called VHH-6; source: E. coli WK6, periplasmic expression (pHEN6), purified (Ni-NTA, SEC S75)) VHH: QVQLVETGGGLVQPGGSLRLSCTASGFIFSANQMNWVRQAPGKGLEWLSGISTRGDTTSYADSVKGRFTISRDNAKNTLYLQMNSLQPDDTAVYFCARVCIRGPEPKLRCDDWGQGTQVTVSS ... 143
5. VHH_(GSDMD-3) (VHH, also called VHH-3; source: E. coli WK6, periplasmic expression (pHEN6), purified (Ni-NTA, SEC S75)) VHH: QVQLVETGGGLVQPGGSLRLSCAASGFTLDIYNMGWFRQAPGKEREGVSCISSRYGTSTYYADSVKGRFTISRDNAKNTVYLQMNNLKPEDTAVYYCATVSWRFTTNQDVCLTPSVSGYWGQGTQVTVSS ... 0.551
